Sourced from the supplement of paper PMC6555819

Would you mind telling me the reported PBM binding z-score of each entry?
test system: PPARg:RXRa 90nM:30nM, anti-RXR (NR concentration 90 nM, RXRa partner concentration 30 nM); assay: PBM binding z-score (relative to random genomic background probes); higher = stronger binding; sequences stand for … in GC…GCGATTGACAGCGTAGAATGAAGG
Write the value as a bare number.

Sample CCGAGTAGGTTACGAGGGGGCATTCACTGCGAAT — what was its PBM binding z-score?
2.85

Query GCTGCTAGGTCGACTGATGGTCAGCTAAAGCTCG next
-0.382

Query CGAACTAAGTCATCCAGGACAGTGAATACATTGA next
0.237

Query AGAATGGGGTTAAGATCAGGGAAACAGAATACAT next
3.37

Query ATCGAAACGTCGTGAGGTGAGTATACAGAAAGGC next
0.0788

Query CCTTACGGGTCTAGGTTATAGCACGGGTGGTACG next
-0.39

Query ACTAGTAGGCCAAGGGTCACTCAAGATTAGTCCG next
10.4

Query CCAGACAGGTGAAAGGTAACTCACTCTGGTACGC next
6.66

Query CGAACTAGGTCACGAGGACAGTGAAGAGGTTGGA next
6.84

Query CCTAGCAGGCCACGGTCACTCAAGCATTTCGCTT next
-0.122

Query CCGAGTAGGTTACGAGGGGGCATTGAGTGCGAAT next
2.58

Query CGAACTAGGTCACCAGGACAGTGAGGAGGTTGGA next
6.61

Query TATCCTAGGTCAGATCGGGCCAGTATACGCTATA next
1.56

Query GATACAGGGTCATCTAGAGGCCAGAGTATGGAAA next
4.1

Query CGAACTAGGTCAACGACAGTGAATCTCCGCACGC next
5.64

Query CATACAGGGTCATCTAGGCCAGAGTAGGGACGGC next
4.02

Query CGAACTACGTCACCAGGACAGTGAAGAGGTTGGA next
-0.46

Query CTATGTAGGTTAAGGGGGTCCTTCAGTTTGAAAG next
6.41

Query ATCGAAAGGTCGTGAAGTGAGTATACAGAAAGGC next
2.63

Query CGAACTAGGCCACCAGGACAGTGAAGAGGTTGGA next
1.23

Query CCGAGTTGGTTACGAGGGGGCATTCAGTGCGAAT next
0.481

Query GCTTACGGGTCAAAGGTTATGGCATGAATAGAAT next
10.5

Query TCGAGTAGGTTACGGGGGCATGCAGGGATGAAGA next
4.99

Query ATCGAAAGGTCGTCGAGGTGAGTATACACCGTTT next
2.66

Query CGAACTAGGACAAAGGACAGTGAAAGGCGACGTA next
5.64

Query CCTTACGGGTCACTGACAGGTCATAGCATTTGGA next
4.03
